- Tested System: E. histolytica PanK (EhPanK) recombinant enzyme (Entamoeba histolytica, UniProt B1N2P3)
- Sequence (B1N2P3 entry or part of it): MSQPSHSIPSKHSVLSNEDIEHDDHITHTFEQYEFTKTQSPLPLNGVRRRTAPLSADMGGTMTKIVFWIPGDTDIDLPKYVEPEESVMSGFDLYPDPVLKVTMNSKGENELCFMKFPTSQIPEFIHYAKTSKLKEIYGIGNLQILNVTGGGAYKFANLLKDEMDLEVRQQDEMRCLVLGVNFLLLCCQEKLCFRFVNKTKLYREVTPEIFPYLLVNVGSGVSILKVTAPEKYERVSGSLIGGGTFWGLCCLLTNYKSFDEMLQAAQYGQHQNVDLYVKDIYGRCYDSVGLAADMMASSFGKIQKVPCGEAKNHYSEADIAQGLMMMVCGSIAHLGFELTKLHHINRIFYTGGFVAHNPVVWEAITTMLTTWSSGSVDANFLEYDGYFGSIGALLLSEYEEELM
- Protocol Summary: biochemical
Reported Property: IC50 (µM)
Number in µM, nothing else.

Would you kindly share the measured IC50 for C[C@H]1O[C@H](O[C@H]2[C@H](O)[C@@H](O)[C@@H](O)[C@H](O)[C@@H]2O)[C@@H](N)C[C@@H]1NC(=N)C(=O)O ? 254

---

- Test system: E. histolytica trophozoite (HM-1:IMSS cl6)
- Protocol Summary: Anti-amebic activity, trophozoite viability (WST-1, 48 h)
- Type: cell-based, Entamoeba histolytica
- Conditions: Entamoeba histolytica, HM-1:IMSS cl6 trophozoites, anaerobic, 35.5 °C, mean ± SEM
Kindly state pIC50 for each of the entries shown.
Formally, pIC50 is defined as -log10 of the concentration c, with c in mol/L.

Given the compound CC(=O)[C@H]1O[C@@H](Oc2ccc(/C=C(\C)C(=O)N[C@@H]3[C@H](O)[C@@H](O)[C@H]4OCO[C@H]4[C@@H]3O)cc2O)[C@@H](O)[C@@H]1O [Hygromycin A] , what is its reported pIC50? 3.85

So what's the measured pIC50 for this one? O=C1OC2(OC=C(c3ccccc3)C2=O)c2ccccc21 (stereo not shown) [Fluorescamine] 3.77

Reported pIC50 for C[C@H]1O[C@H](O[C@H]2[C@H](O)[C@@H](O)[C@@H](O)[C@H](O)[C@@H]2O)[C@@H](N)C[C@@H]1NC(=N)C(=O)O [Kasugamycin] : what is it? 4.18

Please give the measured pIC50 for this compound: CC[C@H]1OC(=O)[C@H](C)[C@@H](O[C@H]2C[C@@](C)(OC)[C@@H](O)[C@H](C)O2)[C@H](C)[C@@H](O[C@@H]2O[C@H](C)C[C@H](N(C)C)[C@H]2O)[C@](C)(O)C[C@@H](C)C(=O)[C@H](C)[C@@H](O)[C@]1(C)O [Erythromycin A] 3.81

Param item = Cc1ncc([N+](=O)[O-])n1CCO [Metronidazole] ; retrieve measured pIC50. 6.18

Look up pIC50: O=C(Cc1cccs1)N[C@@H]1C(=O)N2C(C(=O)[O-])=C(C[n+]3ccccc3)CS[C@H]12 [Cephaloridine] 3.61

What value of pIC50 has been recorded for this entry: CCC1OC(=O)CC(O)C(C)C(O[C@@H]2O[C@H](C)C[C@H](N(C)C)[C@H]2O)C(CC=O)CC(C)C(=O)/C=C/C2(C)OC2C1C (stereo partly shown) [Rosamycin] 4.25

Would you kindly share the measured pIC50 for [H]/N=C(/N)N[C@H]1[C@H](O)[C@@H](O)[C@H](O[C@@H]2O[C@@H](C)[C@](O)(C=O)[C@H]2O[C@@H]2O[C@@H](CO)[C@H](O)[C@@H](O)[C@@H]2NC)[C@@H](N/C(N)=N\[H])[C@@H]1O [Streptomycin] ? 4.11

---

- Tested System: UniProt:B1N2P3
- Type: biochemical
- Conditions: cation 5 mM, 0.2 mM pantothenate, 37 °C, pH 6.0; relative to MgCl2; ND = not detected
Reported Property: Relative activity (metal) (%)
Lab book: enter the figure in %, no units written.

Using the record for [Cl][Cu][Cl] , report its Relative activity (metal). 84.3

Reported Relative activity (metal) for [Cl-].[Cl-].[Zn+2] : what is it? 3.9

# get_value(readout='Relative activity (metal)', item= [Cl][Mn][Cl] ) 83.2

Which Relative activity (metal) is listed for [Cl][Fe][Cl] ? 72.8

Which Relative activity (metal) is reported for this compound? [Ca+2].[Cl-].[Cl-] 17.0

Entry under review: [Cl-].[Cl-].[Mg+2] . Reported Relative activity (metal)? 100.0
